- target_desc: Tau
- test_summary: rat primary cortical neurons, FLIPR, 25 uM ASO
Bases are written 5' to 3'; sugars and linkages follow in the same order, as letters with counts (s phosphorothioate, o phosphodiester; PS: all linkages phosphorothioate). The collection does not say whether C is 5-methylated. l = locked nucleic acid (LNA); d = 2'-deoxy (DNA)
Below: a set of entries, each annotated with reported calcium oscillation score.

| residue_codes | calcium oscillation score |
| --- | --- |
| TCAACTGGTTTGTAGACTAT (sugars l3 d14 l3, PS) | 29.9 % of control |
| TTTATTAATTCATAAATGAC (sugars l3 d14 l3, PS) | 46.3 % of control |
| GTCTTCCTGAAGGACACCTG (sugars l3 d14 l3, PS) | 0 % of control |
| AACCAATTAACCGAACTGCG (sugars l3 d14 l3, PS) | 18.1 % of control |
| CAGTTACCATCATACAT (sugars l3 d10 l4, PS) | 89 % of control |
| CATGATCTTAGGCT (sugars l3 d8 l3, PS) | 25.3 % of control |
| TTCTTGTTCTAACCCCA (sugars l3 d12 l2, PS) | 68.1 % of control |
| CTTTTCTCAATGTAACC (sugars l4 d10 l3, PS) | 65.9 % of control |
| CCATTTTTATCATCACCT (sugars l3 d13 l2, PS) | 63.8 % of control |
| TATTAATTATCTGCACC (sugars l3 d10 l4, PS) | 50.9 % of control |
| CCAATACTAGATCTAT (sugars l4 d8 l4, PS) | 64.7 % of control |
| GCCTCTAGCCACATGGACCC (sugars l3 d14 l3, PS) | 4.03 % of control |
| ACTTCTAATTTAGTCAC (sugars l4 d9 l4, PS) | 77.2 % of control |
| TCTTACAGCCAAATGCAGTC (sugars l3 d14 l3, PS) | 23.9 % of control |
| TATTTATAGGTGCATA (sugars l3 d9 l4, PS) | 0 % of control |
| CGTGGGTGATATTGTCCAGG (sugars l3 d14 l3, PS) | 0 % of control |
| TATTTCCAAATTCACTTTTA (sugars llldldddddddddldldll, PS) | 108 % of control |
| ACAAACATCTAAACACCTCA (sugars l2 d14 l4, PS) | 72.6 % of control |
| CCCTGAAAGAGGGCAG (sugars l3 d10 l3, PS) | 18.4 % of control |
| GTTGGATCAGAGGGTC (sugars l3 d10 l3, PS) | 22.2 % of control |
| TTCACTTAGTAACCAA (sugars l4 d8 l4, PS) | 62 % of control |
| CCAGATTCCCCAACTCAC (sugars l3 d13 l2, PS) | 89 % of control |
| CCCACATTTGCAAACCAC (sugars l2 d14 l2, PS) | 50.5 % of control |

meta.source: the OligoGym collection
